Conditions: 298.15 K; 101.33 kPa; Liquid; Vibrating tube method
parameter: mass density (kg/m3)
Reply with just the number (in kg/m3).

get_value(item= Cc1ccc(C)cc1 [1,4-dimethylbenzene] , readout=mass density) returns 856.5

Kindly note the recorded mass density for OC1CCCCC1 [cyclohexanol] , which is 961.5

Per the records, this compound ( Cc1ccccc1 [toluene] ) has mass density equal to 862.1

get_value(item= CC(=O)C=C(C)C [4-methyl-3-penten-2-one] , readout=mass density) returns 857.6

---

Assay: refractive index (Na D-line) (dimensionless)
Conditions: 298.15 K; 101.33 kPa; Liquid; Standard Abbe refractometry
parameter: refractive index
Field format: numeric only.

Lab note: measured refractive index of `O` was 1.3324

Notebook: `Cc1ccc(C)cc1` , refractive index read as 1.4931

Consider `CC(=O)C=C(C)C` . Its measured refractive index is 1.4416

# molecule `OC1CCCCC1` ; its refractive index = 1.4621

Recorded result, `Cc1ccccc1` , refractive index: 1.4938
